target-under-test: human L-Selectin-IgG-chimera (Homo sapiens)
Construct: fused on or other part: human IgG Fc part, captured on the plate by goat anti human Fc antibody; a tag, no second protein
Sequence (P14151 39-318 limits assumed, change not shown): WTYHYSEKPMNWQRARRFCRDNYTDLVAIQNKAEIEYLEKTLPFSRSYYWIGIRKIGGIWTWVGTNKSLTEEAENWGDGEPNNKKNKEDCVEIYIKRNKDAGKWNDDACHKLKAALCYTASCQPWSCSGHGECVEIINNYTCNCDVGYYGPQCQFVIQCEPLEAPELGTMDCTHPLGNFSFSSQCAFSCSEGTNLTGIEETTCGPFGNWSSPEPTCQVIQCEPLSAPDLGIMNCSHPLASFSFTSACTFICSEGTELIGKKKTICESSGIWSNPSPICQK
test-name: Sialyl Lewis X Tyrosine Sulfate Assay (sLex TSA), L-selectin
Format: binding
conditions-used: sLexTSA, in vitro inhibition at 100 μM
measure: L-Selectin [% inhib.] (% inhib.)

| smiles-representation | target-under-test | L-Selectin [% inhib.], % inhib. |
| --- | --- | --- |
| O=C(O)CN1CCN(C(=O)CCCNC(=O)c2cc(O)cc(O)c2)CC1 | human L-Selectin-IgG-chimera (Homo sapiens) | 11.6 |
| Cc1ccc(C(=O)O)cc1NC(=O)CCCNC(=O)c1cc(O)cc(O)c1 | human L-Selectin-IgG-chimera (Homo sapiens) | 6.8 |

a: O=C(CCCNC(=O)c1cc(O)cc(O)c1)NCc1ccc(C(=O)O)cc1
b: COC(=O)c1ccc(CNC(=O)CCCNC(=O)c2cc(O)cc(O)c2)cc1
Please state the entry with greater L-Selectin [% inhib.] among a and b . Kindly give the label for the entry you pick.
b
(b: 31.1 % inhib., a: 10.9 % inhib.)

====

target-under-test: human P-Selectin-IgG-chimera (Homo sapiens, UniProt P16109)
Sequence (P16109 42-771 limits assumed, change not shown): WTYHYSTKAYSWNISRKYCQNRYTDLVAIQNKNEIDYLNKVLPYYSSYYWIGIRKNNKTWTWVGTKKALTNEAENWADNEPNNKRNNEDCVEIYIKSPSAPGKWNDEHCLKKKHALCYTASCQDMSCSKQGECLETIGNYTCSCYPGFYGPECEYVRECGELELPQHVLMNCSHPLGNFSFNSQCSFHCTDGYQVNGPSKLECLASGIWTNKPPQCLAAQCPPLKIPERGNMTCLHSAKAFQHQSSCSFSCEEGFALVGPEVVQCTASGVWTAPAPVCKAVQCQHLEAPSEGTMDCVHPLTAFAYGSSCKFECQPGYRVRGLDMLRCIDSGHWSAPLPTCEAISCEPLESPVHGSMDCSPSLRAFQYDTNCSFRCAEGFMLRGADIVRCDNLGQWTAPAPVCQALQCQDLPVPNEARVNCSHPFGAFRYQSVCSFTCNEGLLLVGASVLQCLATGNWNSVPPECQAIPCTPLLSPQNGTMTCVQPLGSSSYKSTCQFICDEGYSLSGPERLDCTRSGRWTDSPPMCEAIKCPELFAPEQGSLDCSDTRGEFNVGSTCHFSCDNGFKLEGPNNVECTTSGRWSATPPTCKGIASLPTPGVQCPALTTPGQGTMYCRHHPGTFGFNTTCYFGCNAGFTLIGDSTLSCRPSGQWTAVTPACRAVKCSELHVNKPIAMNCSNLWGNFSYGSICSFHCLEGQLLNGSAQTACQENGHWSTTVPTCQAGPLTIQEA
test-name: Sialyl Lewis X Tyrosine Sulfate Assay (sLex TSA), P-selectin
Format: binding
conditions-used: sLexTSA, in vitro inhibition at 100 μM
measure: P-Selectin [% inhib.] (% inhib.)

Illustrative cases are given below, each with its answer.
| compound | P-Selectin [% inhib.] (% inhib.) |
| --- | --- |
| COC(=O)c1ccc(C)c(NC(=O)CCCNC(=O)c2cc(O)cc(O)c2)c1 [Compound 37] | 5.2 |
| O=C(CCCNC(=O)c1cc(O)cc(O)c1)Nc1cccc(C(=O)O)c1 [Compound 21] | 3.0 |
| Cc1c(NC(=O)CCCNC(=O)c2cc(O)cc(O)c2)cccc1C(=O)O [Compound 38] | 9.4 |

A: COC(=O)c1cccc(NC(=O)CCCNC(=O)c2cc(O)cc(O)c2)c1 [Compound 22]
B: O=C(O)CCc1cccc(NC(=O)CCCNC(=O)c2cc(O)cc(O)c2)c1 [Compound 32]
C: O=C(O)Cc1cccc(NC(=O)CCCNC(=O)c2cc(O)cc(O)c2)c1 [Compound 34]
List items by P-Selectin [% inhib.] in falling order. Respond with the label ranking, as requested.
A, C, B
(A: 22.7 % inhib., C: 12.9 % inhib., B: 1.4 % inhib.)

I: O=C(O)CN1CCN(C(=O)CCCNC(=O)c2cc(O)cc(O)c2)CC1 [Compound 23]
II: COC(=O)c1ccc(CNC(=O)CCCNC(=O)c2cc(O)cc(O)c2)cc1 [Compound 40]
Just tell me: smaller P-Selectin [% inhib.] value, I or II ? Kindly give the label for the entry you pick.
I

====

target-under-test: human L-Selectin-IgG-chimera (Homo sapiens)
Construct: fused on or other part: human IgG Fc part, captured on the plate by goat anti human Fc antibody; a tag, no second protein
test-name: Sialyl Lewis X Tyrosine Sulfate Assay (sLex TSA), L-selectin
Type: binding
conditions-used: sLexTSA
measure: IC50 (µM)

| compound | measure | unit-name | data-value |
| --- | --- | --- | --- |
| COc1ccc(CC(=O)Nc2ccc(-c3cc(C(=O)O)c(C)o3)cc2)c(OC)c1 [Compound 28] | IC50 | µM | 319 |
| O=C(Nc1ccccc1-c1ccc(C(=O)O)s1)c1cccc(-c2ccc(O)cc2O)c1 [Compound 67] | IC50 | µM | 434 |
| COc1cc(CC(=O)Nc2ccc(-c3cc(C(=O)O)c(C)o3)cc2)cc(OC)c1 [Compound 30] | IC50 | µM | 376 |

Values compiled from patent US20090030015A1.
